FYI, the data here is from patent US20130131075A1.

target: cynomolgus BK1-receptor (Macaca fascicularis); construct: expressed in transfected cells; host or cells: CHO cells (homogenate); assay: cynoBK1-receptor binding assay; settings: at 10 μgmol/L; CHO cells expressing cynomolgus BK1-receptor, radioligand kallidine (DesArg10,Leu9)
Sequence (Q3BCU0 whole entry): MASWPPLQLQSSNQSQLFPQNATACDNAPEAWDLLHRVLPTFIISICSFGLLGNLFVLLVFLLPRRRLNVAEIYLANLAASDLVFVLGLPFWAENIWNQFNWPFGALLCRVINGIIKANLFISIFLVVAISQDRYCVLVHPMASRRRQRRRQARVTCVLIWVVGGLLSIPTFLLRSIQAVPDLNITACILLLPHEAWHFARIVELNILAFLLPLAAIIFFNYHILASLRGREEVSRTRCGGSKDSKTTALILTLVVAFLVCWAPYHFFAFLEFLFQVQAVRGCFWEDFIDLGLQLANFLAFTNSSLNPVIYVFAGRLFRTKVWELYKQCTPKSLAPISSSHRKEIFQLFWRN
The following molecules are listed with their measured inhibition at 10 µM values.
reported_metric: inhibition at 10 µM (%)

molecule="O=C1CCC(C(=O)N[C@@]2(C(=O)NCc3ccc(Nc4ccccc4C(F)(F)F)cc3)CCOC2)N1 (stereo partly drawn) [(56)]" value_measured=99
molecule="O=C(NC1(C(=O)NCc2ccc(Nc3ccccc3C(F)(F)F)cc2)CC1)c1cncc(C(F)(F)F)c1 [(26)]" value_measured=109
molecule="CC(NC(=O)C1(NC(=O)c2cncc(N)c2)CC1)c1ccc(Nc2c(F)cccc2C(F)(F)F)cn1 (stereo not drawn) [(124)]" value_measured=112
molecule="CCC(=O)NC1(C(=O)NCc2ccc(Nc3ccccc3C(F)(F)F)cc2)CC1 [(13)]" value_measured=101
molecule="Nc1cncc(C(=O)N[C@@]2(C(=O)NCc3ncc(Nc4c(F)cccc4C(F)(F)F)cc3F)CCOC2)c1 [(154)]" value_measured=101
molecule="Nc1cncc(C(=O)NC2(C(=O)NCc3ncc(Nc4ccc(F)cc4C(F)(F)F)cc3F)CC2)c1 [(152)]" value_measured=105
molecule="O=C(NC1(C(=O)NCc2ccc(Nc3ccc(F)cc3Cl)cn2)CC1)c1cncnc1 [(190)]" value_measured=91
molecule="CCN(c1ccccc1)c1ccc(CNC(=O)C2(NC(=O)c3cncnc3)CC2)cc1 [(111)]" value_measured=20
molecule="Cc1ncc(C(=O)NC2(C(=O)NCc3ncc(Nc4c(F)cccc4C(F)(F)F)cc3F)CC2)cn1 [(134)]" value_measured=101
molecule="CC(NC(=O)C1(NC(=O)c2cncnc2)CC1)c1ccc(Nc2ccc(OC(F)F)cc2)cc1 (stereo not drawn) [(25)]" value_measured=86
molecule="O=C(NC1(C(=O)NCc2ccc(Nc3ccc(F)cc3C(F)(F)F)cc2)CC1)c1cncs1 [(29)]" value_measured=113
molecule="COc1ccc(C(=O)N[C@@]2(C(=O)NCc3ccc(Nc4ccccc4C(F)(F)F)cc3)CCOC2)cc1 [(99)]" value_measured=96
molecule="O=C(NC1(C(=O)NCc2ccc(Nc3ccc(Br)cc3C(F)(F)F)cn2)CC1)c1cncc(O)c1 [(141)]" value_measured=100
molecule="N#Cc1cc(F)ccc1Nc1ccc(CNC(=O)C2(NC(=O)c3cncnc3)CC2)cc1 [(36)]" value_measured=113
molecule="CCNC(=O)NC1(C(=O)NCc2ccc(Nc3ccccc3C(F)(F)F)cc2)CC1 [(108)]" value_measured=101
molecule="O=C1CCC(C(=O)NC2(C(=O)NCc3ccc(Nc4ccccc4C(F)(F)F)cc3)CC2)N1 (stereo not drawn) [(5)]" value_measured=88
molecule="Nc1cc(C(=O)N[C@@]2(C(=O)NCc3ccc(Nc4ccccc4C(F)(F)F)cc3)CCOC2)ccn1 [(63)]" value_measured=108
molecule="COC(=O)c1ccc(Nc2ccc(CNC(=O)C3(NC(=O)c4cncnc4)CC3)nc2)c(C(F)(F)F)c1 [(196)]" value_measured=82
molecule="O=C(NC1(C(=O)NCc2ccc(Nc3ccccc3C(F)(F)F)cc2)CC1)c1ccno1 [(24)]" value_measured=107
molecule="Cc1nc(N)sc1C(=O)NC1(C(=O)NCc2ccc(Nc3ccc(F)cc3C(F)(F)F)cn2)CC1 [(186)]" value_measured=82
molecule="COc1ccc(C(=O)N[C@@]2(C(=O)NCc3ccc(Nc4ccccc4C(F)(F)F)cc3)CCOC2)o1 [(68)]" value_measured=78
molecule="Nc1ccc(C(=O)N[C@@]2(C(=O)NCc3ccc(Nc4ccccc4C(F)(F)F)cc3)CCOC2)cn1 [(57)]" value_measured=111
molecule="O=C(NC1(C(=O)NCc2ccc(Nc3ccc(Br)cc3C(F)(F)F)cn2)CC1)c1cc(O)nc(O)n1 [(176)]" value_measured=100
molecule="O=C(NC1(C(=O)NCc2ccc(Nc3ccc(Br)cc3C(F)(F)F)cn2)CC1)c1ccnnc1 [(174)]" value_measured=99
molecule="O=C(NC1(C(=O)NCc2ccc(Nc3cc(F)ccc3C(F)(F)F)cn2)CC1)c1cncnc1 [(42)]" value_measured=89
molecule="O=C(NC1(C(=O)NCc2ccc(Nc3ccc(F)cc3)cc2)CC1)c1cncnc1 [(37)]" value_measured=77
molecule="CN(c1ccc(CNC(=O)C2(NC(=O)c3cncnc3)CC2)cc1)c1ccccc1Cl [(110)]" value_measured=33
molecule="COc1ccc(Nc2ccc(CNC(=O)C3(NC(=O)c4cncnc4)CC3)nc2)c(C(F)(F)F)c1 [(50)]" value_measured=115
molecule="Cc1cncc(C(=O)NC2(C(=O)NCc3ncc(Nc4c(F)cccc4C(F)(F)F)cc3F)CC2)c1 [(131)]" value_measured=105
molecule="Nc1cc(C(=O)NC2(C(=O)NCc3ccc(Nc4ccc(F)cc4C(F)(F)F)cn3)CC2)on1 [(150)]" value_measured=105
molecule="Cc1nnc(C(=O)NC2(C(=O)NCc3ccc(Nc4ccccc4C(F)(F)F)cc3)CC2)o1 [(27)]" value_measured=104
molecule="O=C(N[C@@]1(C(=O)NCc2ncc(Nc3ccc(F)cc3C(F)(F)F)cc2F)CCOC1)c1cncnc1 [(153)]" value_measured=106
molecule="O=C(NC1(C(=O)NCc2ncc(Nc3c(F)cccc3C(F)(F)F)cc2F)CC1)c1cccc(O)n1 [(136)]" value_measured=104
